List of TGI values.
- Tested on: LOX IMVI melanoma
- assay.comment: NCI tumour cell line growth inhibition, 48 h
Value expressed in µM; do not type the unit.

[[record]]
smiles_structure = "COc1ccc(-c2nc3cc(F)ccc3s2)cc1O"
reported_metric = "TGI"
unit_info = "µM"
value_observed = 79.3

[[record]]
smiles_structure = "CCN(CCCl)CCCCNc1c2ccccc2nc2ccc(OC)cc12"
reported_metric = "TGI"
unit_info = "µM"
value_observed = 1.52


Please examine the following record next.
The recorded TGI with LOX IMVI melanoma for CCN1C(Cl)=NS(=O)(=O)c2ccccc21 was 36.7

----------
Quick list: TGI per entry.
- Tested on: EKVX NSCLC
- assay.comment: NCI tumour cell line growth inhibition, 48 h

[[record]]
molecule = "O=C1C=CC2(C=C1)CCC(=O)O2"
target = "EKVX NSCLC"
value_observed = "43.8 µM"

[[record]]
molecule = "CCCCCC/C=C\\CCCCCCCCCc1cc(O)cc(OC)c1O"
target = "EKVX NSCLC"
value_observed = "1.74 µM"

[[record]]
molecule = "CN1N=C(c2ccncc2)OC1c1ccc(Cl)cc1Cl (stereo unspecified)"
target = "EKVX NSCLC"
value_observed = "> 100 µM"


Summary for this molecule, c1ccc(C[n+]2ccc3c(c2)CCCC3)cc1 : TGI is 85.8 µM

Query C=CCCC(CCC=C)(C(=O)O)C(=O)O yields TGI of > 100 µM

Recorded TGI (molecule COc1ccc(COC(=O)NNC(=O)C2CSC(c3ccccc3)N2C(C)=O)cc1 (stereo unspecified) ): > 100 µM

----------
- System: NCI-H460 lung
- assay.comment: NCI tumour cell line growth inhibition, 48 h
reported.metric: TGI

Worked cases, TGI given:
[[record]]
molecule = "CCOC(=O)c1c(O)cc(=O)[nH]c1N1CCOCC1"
target = "NCI-H460 lung"
value_observed = "> 100 µM"

[[record]]
molecule = "COc1cc(C2CC(C)(N3CCCC3)Oc3cc4c(cc32)OCO4)cc(OC)c1OC (stereo not drawn)"
target = "NCI-H460 lung"
value_observed = "3.5 µM"

[[record]]
molecule = "CC1(C)C(O)OC(O)C1(C)C (stereo not drawn)"
target = "NCI-H460 lung"
value_observed = "> 100 µM"

[[record]]
molecule = "CN(C)CC/C(=N\\Nc1c(F)c(F)c(F)c(F)c1F)c1ccccc1"
target = "NCI-H460 lung"
value_observed = "> 100 µM"


Summary for this molecule, NCCOc1ncccc1/C=C1\C2C=CC=CC2C2C=CC(F)=CC12 (stereo not drawn) : TGI is 1.46 µM

Entry O=C1c2ccccc2C2(O)Nc3c(ccc4ccccc34)C12O (stereo not drawn) ; TGI = > 100 µM

Reported TGI of O=C1CS/C(=N/S(=O)(=O)c2ccc(N3N=C4c5ccccc5CC4C3c3cccs3)cc2)N(c2ccccc2)C1 (stereo not drawn) : > 100 µM

Data point: Clc1ccc(C2c3ccccc3-c3nc4ccccc4n32)cc1 (stereo not drawn) ; TGI = > 100 µM

Memo: CC1(C)CC2(S(=O)(=O)c3ccccc3)ON1CC2S(=O)(=O)c1ccccc1 (stereo not drawn) , reported TGI: > 100 µM

Quick note, TGI for CCCCCCCCCCCCCCNc1nc(C(=O)OCC)ncc1-c1ccc(C(F)(F)F)cc1 landed at > 100 µM

# molecule CC(=O)NC1C(O)CC(OCCCSCCN)(C(=O)O)OC1C(O)C(O)CO (stereo not drawn) ; its TGI = > 100 µM

Lab note: measured TGI of Cc1ccc2c3c4c(ccc13)C(C)(C)OC4=C(C(C)C)C2=O was > 100 µM

GET /value?item= CO/C=C(/C(=O)OC)c1ccccc1Oc1c(F)c(F)c(F)c(F)c1F &field=TGI returns > 100 µM

Lab note: CCOC(=O)C1C=C1C(C)(C)O (stereo not drawn) gave TGI of > 10 µM

The recorded TGI for O=c1c2c3c(sc2n2c(CCl)nnc2n1Cc1ccccc1)CCCC3 is 7.98 µM

Short answer for c1cc2ccc3cc2cc1CNCCN1CCNCc2ccc4ccc(cc4c2)CNCCN(CCNC3)CCNCc2ccc3ccc(cc3c2)CNCC1 : TGI was 10.8 µM

Recorded result, O=[N+]([O-])c1ccc(/C(=C\c2ccccc2)Cn2ccnc2)cc1 , TGI: > 100 µM

// TGI lookup, molecule = Cc1ccncc1N1CCN(c2ccnc(Cl)c2)C1=O , result: > 100 µM

----------
Consider the following molecules and their measured TGI readings.
- System: KM12 colon
- assay.comment: NCI tumour cell line growth inhibition, 48 h
# unit: µM | format: bare number

Some solved entries appear below for comparison.
[[record]]
molecule = "O=C(Nc1ccc(Cl)cc1)Oc1ccc(C(=S)Nc2ccc(Br)cc2)cc1"
reported_metric = "TGI"
value_observed = 25.5

[[record]]
molecule = "COC(O)C(=O)c1c2c(cc3c1CCC3)CCCC2 (stereo not given)"
reported_metric = "TGI"
value_observed = 34.1

[[record]]
molecule = "O=C1C=CC2(C=C1)CCC(=O)O2"
reported_metric = "TGI"
value_observed = 29.9


Now turn to the next molecule.
# TGI of CCCCCCC/C(=N\N=C(N)N)c1ccc(O)cc1 = 3.52

----------
- System: A549 NSCLC
- assay.comment: NCI tumour cell line growth inhibition, 48 h
reported.metric: TGI

Example results:
[[record]]
compound = "c1ccc2c(c1)Sc1ccccc1N2CC1CN2CCC1CC2 (stereo not drawn)"
reported_metric = "TGI"
value_observed = "22.8 µM"

[[record]]
compound = "Cc1cc2c(C(C)C)c(O)c(O)c(C=NCC3CCCN4CCCCC34)c2cc1-c1cc2c(C=NCC3CCCN4CCCCC34)c(O)c(O)c(C(C)C)c2cc1C (stereo not drawn)"
reported_metric = "TGI"
value_observed = "> 75.1 µM"

[[record]]
compound = "O=C1CCC(=O)N1CNc1cccc(NCN2C(=O)CCC2=O)c1"
reported_metric = "TGI"
value_observed = "> 100 µM"

[[record]]
compound = "COC(=O)c1c(C(=O)OC)c2ccc(-c3ccc(Cl)cc3)nn2c1C(=O)c1ccc([N+](=O)[O-])cc1"
reported_metric = "TGI"
value_observed = "> 100 µM"

[[record]]
compound = "C=C1CC(c2ccc(O)c(OC)c2)Oc2c(OC)cccc21 (stereo not drawn)"
reported_metric = "TGI"
value_observed = "> 100 µM"

[[record]]
compound = "COc1ccc(NC(=O)c2sc3nc(C)c(C(=O)/C=C/c4ccccc4)cc3c2N)cc1"
reported_metric = "TGI"
value_observed = "2.13 µM"


Item: O=C1CS/C(=N/S(=O)(=O)c2ccc(N3N=C4c5ccccc5CC4C3c3cccs3)cc2)N(c2ccccc2)C1 (stereo not drawn) | TGI: > 100 µM

// recorded TGI for C=CCN1C(=O)C(=O)N(CC=C)C(=O)C1=O : > 100 µM

----------
- System: U251 CNS
- assay.comment: NCI tumour cell line growth inhibition, 48 h
reported.metric: TGI

Look over these answered cases.
[[record]]
compound = "COC(=O)c1c(C(=O)OC)c2ccc(-c3ccc(Cl)cc3)nn2c1C(=O)c1ccc([N+](=O)[O-])cc1"
value_observed = "> 100 µM"

[[record]]
compound = "COc1cc2c(cc1OCCCCOc1cc3nc(C)nc(Cl)c3cc1OC)N=C[C@@H]1CCCN1C2=O"
value_observed = "6.88 µM"


Short answer for CSC1(C)CC2C(CC1N1CCOCC1)C2(C)C (stereo not given) : TGI was > 100 µM

Looking up O=[N+]([O-])c1ccc(/C(=C\c2ccccc2)Cn2ccnc2)cc1 , I found its TGI recorded as > 100 µM

Entry C[n+]1cn(-c2ccc([N+](=O)[O-])cn2)c2ccccc21 , TGI reported as > 100 µM

Form: compound = O=C(N/N=C\c1cc(Cl)ccc1O)c1ccncc1 ; TGI = > 100 µM

Lab book: TGI of CCOC(=O)C(C(N)=O)c1nc2cc([N+](=O)[O-])ccc2nc1/C=C(\O)c1ccccc1 (stereo not given) noted as 23.4 µM

Record summary for CN1CCN(Cn2nc(COc3ccc(Cl)cc3)n(/N=C/c3ccc(-c4ccc(Cl)cc4Cl)o3)c2=S)CC1 : reported TGI = 23.1 µM

The recorded TGI for entry O=C(Cc1nc2cccnc2nc1/C=C(\O)c1ccccc1)c1ccccc1 equals > 100 µM

For reference, reported TGI for Cc1nc2c(n1-c1ccc(Br)cc1)C(=O)c1ccccc1C2=O stands at > 43.6 µM

----------
Reported TGI values for the following molecules.
- System: UACC-257 melanoma
- assay.comment: NCI tumour cell line growth inhibition, 48 h

[[record]]
molecule = "COc1ccc(C2C(Cl)C(=O)N2NC(=O)c2ccccc2O)cc1 (stereo unspecified)"
value_observed = "> 100 µM"

[[record]]
molecule = "CCOC(=O)CC1c2ccc(O)cc2OC(=O)C1c1ccc(N)cc1 (stereo unspecified)"
value_observed = "> 100 µM"

[[record]]
molecule = "C=C1CC(c2ccc(O)c(OC)c2)Oc2c(OC)cccc21 (stereo unspecified)"
value_observed = "> 100 µM"

[[record]]
molecule = "N#Cc1cc(-c2nc3cc(F)ccc3s2)ccc1N"
value_observed = "> 100 µM"

[[record]]
molecule = "N#CCCN1C/C(=C/c2ccccc2)C(=O)/C(=C/c2ccccc2)C1"
value_observed = "4.64 µM"

[[record]]
molecule = "C=C[C@@]1(C)CC2(C=C(CO)C(O)O2)Oc2c1c(=O)oc1cccc(C)c21 (stereo partly specified)"
value_observed = "35 µM"

[[record]]
molecule = "COc1cc2c(c(OC)c1)C(C)=NC(C)C2 (stereo unspecified)"
value_observed = "> 100 µM"

[[record]]
molecule = "C=C(C)C(=O)OC1C[C@H](COC(C)=O)C2CC=C(C)C2C2OC(=O)C(=C)[C@H]12 (stereo partly specified)"
value_observed = "13.2 µM"


For record CC1(C)C(O)OC(O)C1(C)C (stereo unspecified) the listed TGI is > 100 µM

The reported value for CCN1C(Cl)=NS(=O)(=O)c2ccccc21 in terms of TGI is 80.8 µM

Lab note: measured TGI of COc1ccc2oc(=O)cc(C3c4ccc([nH]4)C(c4cc(=O)oc5ccc(OC)cc45)c4ccc([nH]4)C(c4cc(=O)oc5ccc(OC)cc45)c4ccc([nH]4)C(c4cc(=O)oc5ccc(OC)cc45)c4ccc3[nH]4)c2c1 (stereo unspecified) was 13.2 µM

Documented TGI of CC(=O)Oc1cc2c[n+](C)c3c4cc(OC(C)=O)c(OC(C)=O)cc4ccc3c2cc1OC(C)=O : > 100 µM

The recorded TGI for entry COc1nc(C(=O)O)c(Cl)c(OC)c1Cl equals > 100 µM
